Sourced from patent US11352401

# tested-system: T1, HLA-A*01 (human)
# T1 construct: MHC monomer made peptide-receptive by UV cleavage of a UV-sensitive ligand; also called peptide-receptive MHC class I monomer
# method: UV peptide-exchange ELISA; ++++ = yield >75%
readout-name: peptide exchange yield

- binder: "TSDSNLNKY [TSDSNLNKY (SEQ ID NO: 185)]"
  result: "> 75%"
- binder: "DSDESYMEKSLY [DSDESYMEKSLY (SEQ ID NO: 401)]"
  result: "> 75%"
- binder: "QIDTGENLY [QIDTGENLY (SEQ ID NO: 433)]"
  result: "> 75%"
- binder: "LLDTAQKNLY [LLDTAQKNLY (SEQ ID NO: 416)]"
  result: "> 75%"
- binder: "RLDTPLYFSY [RLDTPLYFSY (SEQ ID NO: 169)]"
  result: "> 75%"
- binder: "YSDSLVQKGY [YSDSLVQKGY (SEQ ID NO: 451)]"
  result: "> 75%"
- binder: "GTEFTTVLY [GTEFTTVLY (SEQ ID NO: 149)]"
  result: "> 75%"
- binder: "ETEEGIYWRY [ETEEGIYWRY (SEQ ID NO: 405)]"
  result: "> 75%"
- binder: "NTEDSSMSGYLY [NTEDSSMSGYLY (SEQ ID NO: 429)]"
  result: "> 75%"
- binder: "LLEDKHFQSY [LLEDKHFQSY (SEQ ID NO: 417)]"
  result: "> 75%"
- binder: "AAEIGDKSWLY [AAEIGDKSWLY (SEQ ID NO: 134)]"
  result: "> 75%"
- binder: "GTEFTTILY [GTEFTTILY (SEQ ID NO: 148)]"
  result: "> 75%"
- binder: "SADDIRGIQSLY [SADDIRGIQSLY (SEQ ID NO: 174)]"
  result: "> 75%"
- binder: "LSDTSVIQFY [LSDTSVIQFY (SEQ ID NO: 159)]"
  result: "> 75%"
- binder: "TLDSALNAASYY [TLDSALNAASYY (SEQ ID NO: 441)]"
  result: "> 75%"
- binder: "YLDRGTGNVSFY [YLDRGTGNVSFY (SEQ ID NO: 449)]"
  result: "> 75%"
